Numbers sourced from patent US20250027060A1.

# system: T1, ALKTG-EGFL (human ALK amino acids 648-1025) (human, UniProt Q9UM73 648-1025, N-linked glycans; EndoH-trimmed (deglycosylated) for crystals and SEC-MALLS)
# T1 construct: The C-terminal Fc-His6 tag was removed by caspase 3; also called ALK (in BLI, SEC-MALLS and ITC)
# T1 sequence (Q9UM73 648-1025): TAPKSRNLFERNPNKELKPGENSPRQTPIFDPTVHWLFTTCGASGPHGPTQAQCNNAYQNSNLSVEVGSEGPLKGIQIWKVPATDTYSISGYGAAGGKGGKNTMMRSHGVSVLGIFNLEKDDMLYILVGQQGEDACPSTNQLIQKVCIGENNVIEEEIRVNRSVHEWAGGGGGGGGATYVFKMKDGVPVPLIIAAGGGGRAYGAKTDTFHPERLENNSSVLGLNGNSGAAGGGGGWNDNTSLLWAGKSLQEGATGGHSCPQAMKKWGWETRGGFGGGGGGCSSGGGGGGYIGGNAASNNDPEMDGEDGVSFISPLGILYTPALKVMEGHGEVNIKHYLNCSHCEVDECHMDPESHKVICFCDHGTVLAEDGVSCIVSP
# experimental_details: BLI, biotinylated ALKAL1 on streptavidin biosensors, ALKTG-EGFL in solution 6 µM to 400 nM, 1:1 model
endpoint: pKd
Convention used: pKd is expressed as -log10 of the molar concentration.

Inquiry: What does the record list as pKd for ALKAL1 (truncated, residues 57-129) (ligand, human, UniProt Q6UXT8 57-129, looked up, range 57-129; Tag-free in ITC, SEC-MALLS, crystals and Ba/F3 assays; also called ALKAL1^WT; WT ALKAL1) PSGSRSAEIFPRDSNLKDKFIKHFTGPVTFSPECSKHFHRLYYNTRECSTPAYYKRCARLLTRLAVSPLCSQT ?
Reply text: 6.12
